Measured values drawn from PubChem BioAssay (NCI) for this set.

System: SF-539 CNS
Assay: NCI-60 one-dose screen, 48 h (100 = growth as untreated, 0 = no growth, -100 = all killed)
Conditions: 10 µM unless noted
This is part of a sample that, as a whole, favours compounds with a hit. Of some 83,000 tested, about 20% had one in any assay.
growth: recorded values

[
  {
    "compound": "Cc1cc(NCC(=O)Nc2ccc(-c3nc4ccccc4s3)cc2)no1",
    "growth (%)": 105
  },
  {
    "compound": "CCc1nc(C(N)=O)c(Nc2ccc(N3CCC(N4CCN(C)CC4)CC3)c(OC)c2)nc1NC1CCOCC1",
    "growth (%)": -78.3
  },
  {
    "compound": "Cc1ccc(-c2cc3c(SCC(=O)Nc4cc(C(F)(F)F)ccc4Cl)nccn3n2)cc1",
    "growth (%)": 53.9
  },
  {
    "compound": "CCN1CCN(CCCN(C[C@H]2Cc3ccccc3CN2)[C@H]2CCCc3cccnc32)CC1",
    "growth (%)": 94.2
  },
  {
    "compound": "CO[C@H]1C[C@@H]2CC[C@@H](C)[C@@](O)(O2)C(=O)C(=O)N2CCCC[C@H]2C(=O)O[C@H]([C@H](C)C[C@@H]2CC[C@@H](OCCO)[C@H](OC)C2)CC(=O)[C@H](C)/C=C(\\C)[C@@H](O)[C@H](OC)C(=O)[C@H](C)C[C@H](C)\\C=C/C=C/C=C/1C",
    "growth (%)": 41.8
  },
  {
    "compound": "O=C1/C(=C\\c2cccc(OCCCCCOc3ccc(Cl)cc3)c2)N=C2SCCCN12",
    "growth (%)": 77.4
  },
  {
    "compound": "CCN1/C(=C/C=C/c2n(-c3ccccc3)c3ccc(-c4nc5ccccc5s4)cc3[n+]2CC)N(c2ccccc2)c2ccc(-c3nc4ccccc4s3)cc21",
    "growth (%)": -13.7
  }
]
